ASSAY_DETAILS: RAM signaling pathway blockade in yeast – S. cerevisiae, Pdr1DBD-CYC8 efflux-inhibited sensitized strain, primary screen (AID 1298);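 further: 0% = DMSO untreated cells without growth and 100% = 10 µM 1-NA-PP1 full growth; higher means more yeast growth rescued from 5-FOA killing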
EXPERIMENTAL_SETUP: S. cerevisiae cbk1-as DSE1-URA3 strain, 5-FOA growth OD615, 2 d; at 50 µM; stronger effect = higher value
OUTCOME_MEASURE: RAM network inhibition (%)
Answer with a number only, understood to be in %.

Supply reported RAM network inhibition belonging to this molecule: CCOC(=O)c1ccc(NC(=O)N(CC)CC)cc1
2.51

Read the entry CCOC(=O)C1CCN(C(=O)c2oc3ccc(S(=O)(=O)N4CC(C)CC(C)C4)cc3c2C)CC1 (stereo not drawn) and write its reported RAM network inhibition.
5.32

Give the reported value of RAM network inhibition for this record: CC(Sc1nc2c(c(=O)n(C)c(=O)n2C)n1Cc1cc2c(cc1Cl)OCO2)C(=O)O (stereo not drawn)
1.02

Name the recorded RAM network inhibition of the molecule listed here: CCSc1oc(-c2ccco2)nc1S(=O)(=O)c1ccc(F)cc1
5.09

Supply measured RAM network inhibition of O=C(CC1(O)C(=O)Nc2ccccc21)c1ccccc1 (stereo not drawn) in your reply.
-1.83

Query RAM network inhibition for Cc1cccc(NC(=O)C2CCN(S(=O)(=O)c3cccc4cccnc34)CC2)n1
1.44

Please give measured RAM network inhibition of the following entry: CCCn1cc(S(=O)(=O)CC(=O)NC2CCCCC2)c2ccccc21
2.24

Check the records and state RAM network inhibition for CN(C(=O)c1ccc(=O)[nH]c1)C1(C(=O)NC2CCCCC2)CCCCC1
1.66

Dear colleague, please send me the reported RAM network inhibition for O=C(O)[C@@H](c1ccccc1)N1Cc2ccccc2C1=O when you can.
1.56

Identify measured RAM network inhibition associated with O=C(CNC(=O)Cn1ccc2ccccc2c1=O)NCCCN1CCN(c2cccc(Cl)c2)CC1
2.03

Hello, please tell me recorded RAM network inhibition for this one: Cc1nc2sc(C(c3ccco3)N3CCN(C(c4ccccc4)c4ccccc4)CC3)c(O)n2n1 (stereo not drawn)
10.8

Please give measured RAM network inhibition of the following entry: CCOC(=O)c1c2n(c3c(NCc4ccccc4)ncnc13)CCCC2
2.51

Quickly give me recorded RAM network inhibition for CCOc1ccc2nc(N3CCC(C(=O)Nc4nnc(CC)s4)CC3)sc2c1
6.98

Read off the recorded RAM network inhibition for S=c1nc(-c2ccccc2)n(CCN2CCOCC2)c2c1CCCC2
6.76

Name the recorded RAM network inhibition of the item Cc1ccc2nc(NC(=O)c3cccs3)sc2c1 in your answer.
4.15

Return RAM network inhibition for the following molecule: COc1ccc(NC(=O)C(c2ccc(OC)cc2)N(C)C(=O)c2cnccn2)cc1 (stereo not drawn)
1.4

Retrieve RAM network inhibition measured for CC(=O)C(Sc1ccc2nnc(-c3ccc(C)cc3)n2n1)C(C)=O and print it.
6.06

For the molecule CCc1cccc(Nc2cc(C)nc3nc(C)nn23)c1 , give its reported RAM network inhibition.
2.83

Could you please provide reported RAM network inhibition for CCOc1ccc(N(CC(=O)NC2CCCCCC2)S(=O)(=O)c2c(C)noc2C)cc1 ? Thanks!
5.55

Kindly indicate its recorded RAM network inhibition. Item: COc1ccc(OCC(=O)Nc2cc(OC)cc(OC)c2)cc1
-2.47

Tell us which RAM network inhibition value is on record for CC(=O)Nc1ccc(S(=O)(=O)NCCSCc2ccco2)cc1
2.29

Return reported RAM network inhibition. Input molecule: Cc1ccc(C)c(S(=O)(=O)Nc2ccc(O)cc2)c1
2.77

Return value of RAM network inhibition for input c1ccc(Cc2nnc3sc(-c4ccco4)nn23)cc1 , no commentary.
5.97
